TARGET ENTITY: Substance-K receptor (Homo sapiens) (UniProt P21452)
Sequence (P21452 whole entry): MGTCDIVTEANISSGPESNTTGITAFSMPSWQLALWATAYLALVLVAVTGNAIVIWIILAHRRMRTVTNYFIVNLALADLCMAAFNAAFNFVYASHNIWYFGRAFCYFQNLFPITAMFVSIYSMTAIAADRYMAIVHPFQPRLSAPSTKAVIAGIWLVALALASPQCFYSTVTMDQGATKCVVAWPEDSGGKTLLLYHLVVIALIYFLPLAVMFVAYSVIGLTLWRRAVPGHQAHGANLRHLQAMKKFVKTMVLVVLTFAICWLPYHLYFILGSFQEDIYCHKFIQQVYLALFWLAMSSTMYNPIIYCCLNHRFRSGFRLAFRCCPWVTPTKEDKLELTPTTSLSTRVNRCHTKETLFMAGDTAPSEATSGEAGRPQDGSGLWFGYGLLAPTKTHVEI
PROCEDURE SUMMARY: Displacement of [125I]-NKA from […] expressed in CHO cell membranes at 10 uM by scintillation counting
Where a SMILES comes first, the peptide text is derived from it. [ ]: non-standard residue; d: D form. NMeF = CN[C@@H](Cc1ccccc1)C(=O)O
OBSERVED PROPERTY: inhibition
Record the result as a number with its unit.

* CSCC[C@H](NC(=O)[C@H](CC(C)C)NC(=O)CNC(=O)[C@H](Cc1ccccc1)N(C)C(=O)[C@H](Cc1ccccc1)NC(=O)[C@H](Cc1ccccc1)NC(=O)[C@@H](N)CC(=O)O)C(N)=O (H-DFF[NMeF]GLM-NH2) | 73%
* CSCC[C@H](NC(=O)[C@H](CC(C)C)NC(=O)CNC(=O)[C@H](Cc1ccccc1)N(C)C(=O)[C@H](Cc1ccccc1)NC(=O)[C@H](Cc1ccccc1)NC(=O)[C@H](CC(=O)O)NC(=O)[C@@H](N)Cc1cnc[nH]1)C(N)=O (H-HDFF[NMeF]GLM-NH2) | 74%

Task item: # get_value(readout='inhibition', item= CSCC[C@H](NC(=O)[C@H](CC(C)C)NC(=O)CNC(=O)[C@H](Cc1ccccc1)N(C)C(=O)[C@H](Cc1ccccc1)NC(=O)[C@H](Cc1ccccc1)NC(=O)[C@H](CC(=O)O)NC(=O)[C@H](Cc1cnc[nH]1)NC(=O)[C@@H](N)CCSC)C(N)=O (H-MHDFF[NMeF]GLM-NH2) )
Reply: 78%

Task item: # get_value(readout='inhibition', item= CSCC[C@H](NC(=O)[C@H](CC(C)C)NC(=O)CNC(=O)[C@H](Cc1ccccc1)N(C)C(=O)[C@H](Cc1ccccc1)NC(=O)[C@@H](N)Cc1ccccc1)C(N)=O (H-FF[NMeF]GLM-NH2) )
Reply: 84%

Task item: # get_value(readout='inhibition', item= CSCC[C@H](NC(=O)[C@H](CC(C)C)NC(=O)CNC(=O)[C@H](Cc1ccccc1)N(C)C(=O)[C@@H](N)Cc1ccccc1)C(N)=O (H-F[NMeF]GLM-NH2) )
Reply: 77%

Measured values drawn from ChEMBL document CHEMBL3352625 for this set.
